- System: Schistosoma mansoni schistosomula (NMRI)
- ASSAY METHOD TEXT: phenotypic severity score (0-4); higher = more antischistosomal effect, active = 2 or more
- REPORTED CONDITIONS: 48 h; 10 µM
Please go through the items and note down their phenotypic severity score.
Response field accepts a number only; no unit should be typed.

**Query** I would be grateful if you could share the reported phenotypic severity score for "O=C(Nc1nnc(-c2ccc(Cl)s2)o1)c1ccc(Cl)s1" .
**Result** 4

**Query** Try the compound "CC(C)(C)C(=O)N(CCCCCCN1C[C@H](O)[C@@H](O)[C@H](O)[C@H]1CO)C1CCCCCC1"
**Result** 2

**Query** Thanks! And "O=C(NC1CC1)c1ccc(CSCc2ccccc2Cl)o1" ?
**Result** 0

**Query** Can you handle "O=C(NC1=NCCS1)c1sc2cc(F)ccc2c1Cl" next?
**Result** 0

* * *

- System: Schistosoma mansoni schistosomula (NMRI);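 also: visual microscopic scoring of shape, motility and density changes versus 0.5% DMSO solvent controls, one point per descriptor, degeneracy or death scored 4, mean of duplicate wells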
- ASSAY METHOD TEXT: phenotypic severity score (0-4); higher = more antischistosomal effect, active = 2 or more
- REPORTED CONDITIONS: 72 h; 10 µM
// one of label 1 = active, label 0 = inactive, no free text

**Query** Dear colleague, could you share the recorded outcome for "COc1ccc(C(=N)N)cc1-c1cn(-c2ccc(C(=N)N)cc2)nn1" when you have a moment?
**Result** label 0

**Query** // repeat for "O=C(Nc1ccc(F)c(-c2nc3cc(-c4ccccc4)cnc3[nH]2)c1)N1CCCC1" and report
**Result** label 1

**Query** Same lookup for "CCOc1ccc(OCC(=O)Nc2cc(C)cc(C)c2)cc1" , please.
**Result** label 0

**Query** Let us now turn to "COc1ccc(Oc2ccc([C@@H](C)N(C)c3ncc4c(N)nc(N)nc4n3)cc2)cc1"
**Result** label 1

**Query** Query "O[C@@H](c1cc(C(F)(F)F)nc2c(C(F)(F)F)cccc12)[C@H]1CCCCN1" next
**Result** label 1

**Query** Also need "COc1ccc2nc(C)cc(OCC(=O)Nc3ccccc3OC)c2c1" , thanks.
**Result** label 0

**Query** Please answer likewise for NC(CC(=O)c1ccc(Cl)cc1Cl)C(Cl)(Cl)Cl (stereo not drawn)
**Result** label 0

**Query** Proceed to "O=C(NC1CCCCC1)N1CCN(Cc2ccc3c(c2)OCO3)CC1"
**Result** label 0

**Query** # iterate: "COc1ccc(N(CCc2cccc(C)n2)C(C)=O)cc1"
**Result** label 0

**Query** Cool, now "CCc1nc2ccc(C(=O)NCc3ccc4c(c3)OCO4)cn2c1N(C)Cc1cccs1"
**Result** label 0

**Query** And the next one, "O=C(NC1CC1)c1ccc(N2CCOc3ccc(Cl)cc32)s1" ?
**Result** label 0

**Query** // repeat for CCc1cc(=O)n(C)c(SC(C)C(=O)Nc2ccc(F)cc2)n1 (stereo not drawn) and report
**Result** label 0

**Query** Then "C[C@H]1c2cccc(O)c2C(=O)C2=C(O)[C@]3(O)C(=O)C(C(N)=O)=C(O)[C@@H](N(C)C)[C@@H]3[C@@H](O)[C@@H]21" ?
**Result** label 0

**Query** Do the same for "CC(C)(C)c1cc(C(=O)Nc2cccnc2)cc(C(=O)Nc2cccnc2)c1" please
**Result** label 0

**Query** Consider next the compound "O=C(Nc1ccc(N2CCNCC2)cc1)c1ccn2ncc(-c3cccc(Cl)c3)c2n1" in the same way.
**Result** label 1

**Query** Now consider "CCCS(=O)(=O)N1CCC(CO)(Cc2ccccc2C(F)(F)F)CC1" .
**Result** label 1

**Query** Quick one: "Cc1ccc(-c2nc(CN(Cc3ccccn3)C(C)C)cs2)o1"
**Result** label 0

**Query** Next entry: "NS(=O)(=O)c1cncc(-c2ccc3nccc(-c4cn[nH]c4)c3n2)c1"
**Result** label 0

**Query** Param item: Clc1cccc(C(c2ccc(CN3CCNCC3)cc2)n2ccnc2)c1 (stereo not drawn)
**Result** label 1

**Query** Field entry: "COc1ccc(C2=NCCN2)cc1-c1cn(-c2cccc(C3=NCCN3)c2)nn1"
**Result** label 0

**Query** Queued: "Brc1c(-c2ccc3c(c2)OCO3)nc2ncccn12"
**Result** label 0

**Query** Subsequent entry: COc1ccc(CN2CCOc3ccc(C(C)(O)CN(C)C)cc3C2)cc1C (stereo not drawn)
**Result** label 0

**Query** Then this compound: Cc1nc(-c2ccccn2)nc(N2CCC(Cc3ccccc3)C2)c1Cl (stereo not drawn)
**Result** label 0

**Query** Do the same for "Cc1cc(O)nc(-n2nc(C)cc2C)n1" please
**Result** label 0

**Query** Ok, now "O=C(c1[nH]nc2c1CCCC2)N1CCN(Cc2ccc3c(c2)OCO3)CC1"
**Result** label 0

**Query** Request: "CNC(=O)c1nn(C)c2c1C(C)(C)Cc1cnc(Nc3ccc(N4CCN(C)CC4)cc3)nc1-2"
**Result** label 1

**Query** Same again, this time with "O=C(Nc1nnc(-c2ccc(Cl)s2)o1)c1ccc(Cl)s1"
**Result** label 1

**Query** Same thing, different compound: CC(Oc1cccc(Cl)c1)C(=O)Nc1ccc2oc(-c3ccncc3)nc2c1 (stereo not drawn)
**Result** label 0

**Query** And what about the compound CC(C(=O)Nc1ccc2oc(-c3ccncc3)nc2c1)c1ccccc1 (stereo not drawn) ?
**Result** label 0

**Query** What would you report for "Nc1cccnc1Nc1ccc(Cl)cc1" ?
**Result** label 0

**Query** Try this compound next: "O=S(=O)(c1ccc(Cl)cc1)N1CCN(C(=S)NCc2ccco2)CC1"
**Result** label 0

**Query** Okay, and "CCc1nc2ccc(Cl)cn2c1C(=O)NCc1ccc(N2CCC(c3ccc(OC(F)(F)F)cc3)CC2)cc1" ?
**Result** label 0

**Query** Also check "Cc1cccnc1NC(=O)c1cccc(OCc2c(C)noc2C)c1"
**Result** label 0

**Query** Can you handle "COc1ccc(Cn2cnc3c(-c4ccco4)nc(Cl)nc32)cc1" next?
**Result** label 0

**Query** Now the compound "CCOc1ccc2cc(-c3nn(C(C)(C)C)c(N)c3C(N)=O)cnc2c1"
**Result** label 0

**Query** Proceed to "CCN(CC)S(=O)(=O)c1ccc(C(=O)Nc2cc(C)nn2-c2nc(C)c(C)c(=O)[nH]2)cc1"
**Result** label 0

**Query** Also "CNc1snc(C)c1C(=O)NCCOc1ccc(OC)cc1" , if possible.
**Result** label 0

**Query** Follow-up item: "O=C1[C@@H](Oc2ccccc2)[C@@H](c2ccc(Cl)cc2)N1CCn1cnc2c(NCc3ccccc3)ncnc21"
**Result** label 1

**Query** What do we get for "CCCCS(=O)(=O)Nc1ccc2cnn(C)c2c1" ?
**Result** label 0

**Query** And the next one, "COc1cccc(NC(=O)c2c(NC(=O)c3cccnc3)sc3c2CCC3)c1" ?
**Result** label 0

**Query** Same again, this time with COc1ccccc1C(C)NCC(=O)Nc1cc(C(F)(F)F)ccc1Cl (stereo not drawn)
**Result** label 0

**Query** Also "CCN(CC)S(=O)(=O)c1ccc(Cl)c(C(=O)Nc2ccc3nc(C)sc3c2)c1" , if possible.
**Result** label 0

**Query** Entry "CN(C)c1cc(NC(=O)Nc2ccccc2)c2ccccc2n1" please
**Result** label 0
